Test system: Salmonella typhimurium
test-details: Antibacterial activity against Salmonella Typhimurium ATCC 14028 after 24 hrs
Format: functional, Salmonella enterica subsp. enterica serovar Typhimurium
test-context: Salmonella enterica, ATCC 14028, 24 h
Field: label. Allowed values: condition met (MIC < 20 µg/mL) or condition not met (MIC >= 20 µg/mL).

Please determine if "Oc1c(Br)cc(Cc2cc(Br)c(O)c(Br)c2O)c(O)c1Br" is below 20 µg/mL in terms of MIC.
condition not met

Please determine if "Oc1ccc(Cc2ccc(O)c(O)c2)cc1O" is below 20 µg/mL in terms of MIC.
condition not met

Please determine if "NCCc1cc(Br)c(O)c(Br)c1" is below 20 µg/mL in terms of MIC.
condition not met

Please determine if "Oc1ccc(Cc2ccc(O)c(Br)c2)cc1Br" is below 20 µg/mL in terms of MIC.
condition not met

Please determine if "Oc1ccc(Br)cc1Cc1cc(Br)ccc1O" is below 20 µg/mL in terms of MIC.
condition met

Please determine if "Oc1c(Br)cc(Br)cc1Cc1cc(Br)cc(Br)c1O" is below 20 µg/mL in terms of MIC.
condition met

Please determine if "Oc1c(Br)cc(Cc2cc(Br)c(O)c(Br)c2)cc1Br" is below 20 µg/mL in terms of MIC.
condition not met

Please determine if "Oc1ccccc1Cc1cc(Br)ccc1O" is below 20 µg/mL in terms of MIC.
condition not met

Please determine if "OCc1cc(O)c(O)c(Br)c1Br" is below 20 µg/mL in terms of MIC.
condition not met

Please determine if "CC1(C)S[C@@H]2[C@H](NC(=O)[C@H](N)c3ccccc3)C(=O)N2[C@H]1C(=O)O" is below 20 µg/mL in terms of MIC.
condition met

Please determine if "Oc1cc(Cc2cc(O)c(O)c(Br)c2Br)c(Br)c(Br)c1O" is below 20 µg/mL in terms of MIC.
condition not met

Please determine if "OCc1cc(O)c(O)cc1Cc1ccc(O)c(O)c1" is below 20 µg/mL in terms of MIC.
condition not met

Please determine if "Oc1ccc(Cc2cc(Br)c(O)c(Br)c2)cc1Br" is below 20 µg/mL in terms of MIC.
condition met

Please determine if "COCc1cc(O)c(O)c(Br)c1Cc1cc(O)c(O)c(Br)c1Br" is below 20 µg/mL in terms of MIC.
condition not met

Please determine if "OCc1cc(O)c(O)c(Br)c1Cc1cc(O)c(O)c(Br)c1Br" is below 20 µg/mL in terms of MIC.
condition not met

Please determine if "COCc1cc(O)c(O)c(Br)c1Br" is below 20 µg/mL in terms of MIC.
condition not met

Reference source: ChEMBL document CHEMBL1140795
